Target system: T1, extracellular domain of human CD73 protein (CD73-ECD), C-terminus polyhistidine-tagged (UniProt P21589 27-547)
T1 chain: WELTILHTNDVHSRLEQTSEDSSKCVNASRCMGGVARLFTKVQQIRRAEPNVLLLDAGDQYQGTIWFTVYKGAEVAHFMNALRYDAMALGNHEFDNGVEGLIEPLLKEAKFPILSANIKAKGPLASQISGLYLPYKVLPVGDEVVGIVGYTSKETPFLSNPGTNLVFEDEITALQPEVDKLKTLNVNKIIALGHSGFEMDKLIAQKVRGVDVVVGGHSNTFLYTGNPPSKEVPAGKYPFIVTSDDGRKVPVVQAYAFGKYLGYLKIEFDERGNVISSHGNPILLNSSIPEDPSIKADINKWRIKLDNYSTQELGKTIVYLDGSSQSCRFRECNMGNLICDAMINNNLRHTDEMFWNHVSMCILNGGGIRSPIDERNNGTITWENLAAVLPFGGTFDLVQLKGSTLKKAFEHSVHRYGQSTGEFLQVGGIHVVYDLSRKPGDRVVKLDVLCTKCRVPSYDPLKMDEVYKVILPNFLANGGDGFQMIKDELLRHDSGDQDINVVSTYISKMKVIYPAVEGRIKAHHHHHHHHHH
Assay notes: enzyme inhibition; left table
Reported endpoint: pIC50
Lab note — pIC50 values are minus log10 of concentrations in M.

Task: Bench note: what pIC50 did Hu001c-28 (antibody, V domains shown) VH: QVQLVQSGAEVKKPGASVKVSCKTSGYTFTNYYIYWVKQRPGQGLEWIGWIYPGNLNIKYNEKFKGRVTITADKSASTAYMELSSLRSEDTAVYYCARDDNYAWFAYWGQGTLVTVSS VL: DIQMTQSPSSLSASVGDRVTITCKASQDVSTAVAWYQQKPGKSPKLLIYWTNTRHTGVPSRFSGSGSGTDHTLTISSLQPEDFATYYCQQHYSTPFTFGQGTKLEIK show?
Result: 10.52

Task: Try this binder next: Hu001c-14 (antibody, V domains shown) VH: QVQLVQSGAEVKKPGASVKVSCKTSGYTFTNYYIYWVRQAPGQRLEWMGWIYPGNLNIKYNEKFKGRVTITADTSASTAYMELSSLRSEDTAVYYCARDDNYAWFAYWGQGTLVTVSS VL: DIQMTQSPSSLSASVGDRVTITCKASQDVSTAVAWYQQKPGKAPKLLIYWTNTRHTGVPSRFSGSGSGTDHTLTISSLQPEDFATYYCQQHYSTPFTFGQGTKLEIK
Result: 10.22

Task: Try this binder next: Hu002c-2 (antibody, V domains shown) VH: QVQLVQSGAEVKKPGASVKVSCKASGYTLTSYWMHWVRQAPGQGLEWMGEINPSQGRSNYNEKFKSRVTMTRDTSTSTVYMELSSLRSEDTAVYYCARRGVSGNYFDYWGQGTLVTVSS VL: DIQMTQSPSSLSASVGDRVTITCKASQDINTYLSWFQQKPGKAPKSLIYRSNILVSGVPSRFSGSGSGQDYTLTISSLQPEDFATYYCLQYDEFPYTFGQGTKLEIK
Result: 10.38

Task: Try this binder next: mAb002c (antibody, V domains shown) VH: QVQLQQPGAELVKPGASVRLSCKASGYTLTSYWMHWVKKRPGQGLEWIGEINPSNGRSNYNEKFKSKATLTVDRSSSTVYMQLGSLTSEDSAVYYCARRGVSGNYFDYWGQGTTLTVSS VL: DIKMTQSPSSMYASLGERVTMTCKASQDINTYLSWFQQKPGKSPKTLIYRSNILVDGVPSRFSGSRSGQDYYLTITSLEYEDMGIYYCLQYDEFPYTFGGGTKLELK
Result: 10.43

Task: Try this binder next: Hu002c-7 (antibody, V domains shown) VH: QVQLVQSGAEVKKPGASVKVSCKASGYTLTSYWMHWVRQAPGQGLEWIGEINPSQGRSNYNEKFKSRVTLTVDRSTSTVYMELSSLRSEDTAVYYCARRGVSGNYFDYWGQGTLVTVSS VL: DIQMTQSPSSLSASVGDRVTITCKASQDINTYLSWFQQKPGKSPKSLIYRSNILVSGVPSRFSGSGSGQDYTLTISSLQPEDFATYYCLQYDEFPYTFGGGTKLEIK
Result: 10.55

Task: Try this binder next: Hu002c-3 (antibody, V domains shown) VH: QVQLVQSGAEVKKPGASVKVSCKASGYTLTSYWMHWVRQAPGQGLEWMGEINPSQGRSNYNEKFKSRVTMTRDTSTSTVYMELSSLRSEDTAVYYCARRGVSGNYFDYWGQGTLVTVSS VL: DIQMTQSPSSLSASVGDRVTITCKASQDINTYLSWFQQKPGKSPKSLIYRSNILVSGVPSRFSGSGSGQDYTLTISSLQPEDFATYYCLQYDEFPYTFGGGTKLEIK
Result: 10.44

Task: Try this binder next: Hu001c-22 (antibody, V domains shown) VH: QVQLVQSGAEVKKPGASVKVSCKASGYTFTNYYIYWVKQRPGQRLEWIGWIYPGNLNIKYNEKFKGRVTITADKSASTAYMELSSLRSEDTAVYYCARDDNYAWFAYWGQGTLVTVSS VL: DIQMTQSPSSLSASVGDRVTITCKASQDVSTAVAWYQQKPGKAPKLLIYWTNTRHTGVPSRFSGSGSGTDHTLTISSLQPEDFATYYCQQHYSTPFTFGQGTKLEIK
Result: 10.52

Task: Try this binder next: Hu001c-25 (antibody, V domains shown) VH: QVQLVQSGAEVKKPGASVKVSCKASGYTFTNYYIYWVRQAPGQRLEWIGWIYPGNLNIKYNEKFKGRVTITADKSASTAYMELSSLRSEDTAVYYCARDDNYAWFAYWGQGTLVTVSS VL: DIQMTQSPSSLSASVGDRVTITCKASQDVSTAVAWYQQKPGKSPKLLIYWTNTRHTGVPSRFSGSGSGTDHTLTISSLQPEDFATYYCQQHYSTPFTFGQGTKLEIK
Result: 9.52

Task: Try this binder next: Hu001c-15 (antibody, V domains shown) VH: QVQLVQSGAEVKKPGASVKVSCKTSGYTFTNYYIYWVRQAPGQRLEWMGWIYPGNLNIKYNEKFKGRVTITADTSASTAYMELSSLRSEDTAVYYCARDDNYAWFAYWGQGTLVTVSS VL: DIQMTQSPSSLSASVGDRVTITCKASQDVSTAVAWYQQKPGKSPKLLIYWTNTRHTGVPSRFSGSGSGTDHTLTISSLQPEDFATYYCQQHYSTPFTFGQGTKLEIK
Result: 10.40

Task: Try this binder next: Hu002c-6 (antibody, V domains shown) VH: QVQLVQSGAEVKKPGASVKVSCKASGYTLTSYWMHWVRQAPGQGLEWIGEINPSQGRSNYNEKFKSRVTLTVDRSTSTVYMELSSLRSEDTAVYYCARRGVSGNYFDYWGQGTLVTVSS VL: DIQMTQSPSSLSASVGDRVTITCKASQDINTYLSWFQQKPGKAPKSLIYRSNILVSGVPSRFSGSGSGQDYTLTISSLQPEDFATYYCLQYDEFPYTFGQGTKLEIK
Result: 10.19
